test system: purified X. dendrorhous enzyme (F-3); assay: Glycosyltransferase activity: incubating maltose (240 g/l) with the purified X. dendrorhous enzyme (F-3), HPLC analysis; assay type: biochemical, Xanthophyllomyces dendrorhous; settings: reaction time 288 h; 240 g maltose/l, 0.2 M sodium acetate pH 5.4, 40° C., 150 rpm
// NB: equality with 20 grams/liter counts as not satisfied; only Composition of the reaction mixture strictly below is satisfied

Prompt: Does OC[C@H]1O[C@H](O[C@H]2[C@H](O)[C@@H](O)[C@@H](O[C@H]3[C@H](O)[C@@H](O)[C@@H](O[C@H]4[C@H](O)[C@@H](O)C(O)O[C@@H]4CO)O[C@@H]3CO)O[C@@H]2CO)[C@H](O)[C@@H](O)[C@@H]1O (some centres unmarked) have Composition of the reaction mixture strictly under 20 grams/liter?
Completion: satisfied

Prompt: Now consider OC[C@H]1O[C@H](OC[C@H]2O[C@H](O[C@H]3[C@H](O)[C@@H](O)C(O)O[C@@H]3CO)[C@H](O)[C@@H](O)[C@@H]2O)[C@H](O)[C@@H](O)[C@@H]1O (some centres unmarked) and answer again.
Completion: not satisfied

Prompt: Now consider OC[C@H]1O[C@H](OC[C@H]2OC(O)[C@H](O)[C@@H](O)[C@@H]2O)[C@H](O)[C@@H](O)[C@@H]1O (some centres unmarked) and answer again.
Completion: satisfied

Prompt: Now consider OC[C@H]1O[C@H](O[C@H]2[C@H](O)[C@@H](O)[C@@H](O[C@H]3[C@H](O)[C@@H](O)C(O)O[C@@H]3CO)O[C@@H]2CO)[C@H](O)[C@@H](O)[C@@H]1O (some centres unmarked) and answer again.
Completion: not satisfied

Prompt: Now consider OC[C@H]1O[C@H](OC[C@H]2O[C@H](O[C@H]3[C@H](O)[C@@H](O)[C@@H](O[C@H]4[C@H](O)[C@@H](O)[C@@H](O)O[C@@H]4CO)O[C@@H]3CO)[C@H](O)[C@@H](O)[C@@H]2O)[C@H](O)[C@@H](O)[C@@H]1O and answer again.
Completion: satisfied

---

Record form. Attribute: Composition of the reaction mixture. Fill in for each entry.
tested on: purified X. dendrorhous enzyme (F-3); assay: Glycosyltransferase activity: incubating maltose (240 g/l) with the purified X. dendrorhous enzyme (F-3), HPLC analysis; format: biochemical, Xanthophyllomyces dendrorhous; details: reaction time 216 h; 240 g maltose/l, 0.2 M sodium acetate pH 5.4, 40° C., 150 rpm
Your answer should be a plain number; it is taken to be in grams/liter.

Prompt: So what's the measured Composition of the reaction mixture for this one? OC[C@H]1O[C@H](O[C@H]2[C@H](O)[C@@H](O)[C@@H](O[C@H]3[C@H](O)[C@@H](O)C(O)O[C@@H]3CO)O[C@@H]2CO)[C@H](O)[C@@H](O)[C@@H]1O (stereo partly drawn)
Completion: 39.3

Prompt: Now consider OC[C@H]1O[C@H](O[C@H]2[C@H](O)[C@@H](O)[C@@H](O[C@H]3[C@H](O)[C@@H](O)[C@@H](O[C@H]4[C@H](O)[C@@H](O)C(O)O[C@@H]4CO)O[C@@H]3CO)O[C@@H]2CO)[C@H](O)[C@@H](O)[C@@H]1O (stereo partly drawn) and answer again.
Completion: 15.1

Prompt: Now consider OC[C@H]1O[C@H](OC[C@H]2OC(O)[C@H](O)[C@@H](O)[C@@H]2O)[C@H](O)[C@@H](O)[C@@H]1O (stereo partly drawn) and answer again.
Completion: 13.1

---

system: purified X. dendrorhous enzyme (F-3); test: Glycosyltransferase activity: incubating maltose (240 g/l) with the purified X. dendrorhous enzyme (F-3), HPLC analysis; type: biochemical, Xanthophyllomyces dendrorhous; details: reaction time 27 h; 240 g maltose/l, 0.2 M sodium acetate pH 5.4, 40° C., 150 rpm
measured endpoint: Composition of the reaction mixture (grams/liter)
Your answer should be a plain number; it is taken to be in grams/liter.

Prompt: So what's the measured Composition of the reaction mixture for this one? OC[C@H]1O[C@H](OC[C@H]2OC(O)[C@H](O)[C@@H](O)[C@@H]2O)[C@H](O)[C@@H](O)[C@@H]1O (some centres unmarked)
Completion: 0

Prompt: Now consider OC[C@H]1O[C@H](O[C@H]2[C@H](O)[C@@H](O)[C@@H](O[C@H]3[C@H](O)[C@@H](O)C(O)O[C@@H]3CO)O[C@@H]2CO)[C@H](O)[C@@H](O)[C@@H]1O (some centres unmarked) and answer again.
Completion: 26.3

Prompt: Now consider OC[C@H]1O[C@H](OC[C@H]2O[C@H](O[C@H]3[C@H](O)[C@@H](O)[C@@H](O[C@H]4[C@H](O)[C@@H](O)[C@@H](O)O[C@@H]4CO)O[C@@H]3CO)[C@H](O)[C@@H](O)[C@@H]2O)[C@H](O)[C@@H](O)[C@@H]1O and answer again.
Completion: 0

Prompt: Now consider OC[C@H]1O[C@H](O[C@H]2[C@H](O)[C@@H](O)[C@@H](O[C@H]3[C@H](O)[C@@H](O)[C@@H](O[C@H]4[C@H](O)[C@@H](O)C(O)O[C@@H]4CO)O[C@@H]3CO)O[C@@H]2CO)[C@H](O)[C@@H](O)[C@@H]1O (some centres unmarked) and answer again.
Completion: 0

Prompt: Now consider OC[C@H]1O[C@H](OC[C@H]2O[C@H](O[C@H]3[C@H](O)[C@@H](O)C(O)O[C@@H]3CO)[C@H](O)[C@@H](O)[C@@H]2O)[C@H](O)[C@@H](O)[C@@H]1O (some centres unmarked) and answer again.
Completion: 5.7

---

test system: purified X. dendrorhous enzyme (F-3); experiment: Glycosyltransferase activity: incubating maltose (240 g/l) with the purified X. dendrorhous enzyme (F-3), HPLC analysis; assay type: biochemical, Xanthophyllomyces dendrorhous; details: reaction time 143 h; 240 g maltose/l, 0.2 M sodium acetate pH 5.4, 40° C., 150 rpm
measured endpoint: Composition of the reaction mixture

Prompt: Query for purified X. dendrorhous enzyme (F-3): what Composition of the reaction mixture does the record show for OC[C@H]1O[C@H](O[C@H]2[C@H](O)[C@@H](O)[C@@H](O[C@H]3[C@H](O)[C@@H](O)C(O)O[C@@H]3CO)O[C@@H]2CO)[C@H](O)[C@@H](O)[C@@H]1O (some centres unmarked) [maltotriose] ?
Completion: 42.8 grams/liter

Prompt: Now consider OC[C@H]1O[C@H](OC[C@H]2OC(O)[C@H](O)[C@@H](O)[C@@H]2O)[C@H](O)[C@@H](O)[C@@H]1O (some centres unmarked) [isomaltose] and answer again.
Completion: 12.4 grams/liter

Prompt: Now consider OC[C@H]1O[C@H](OC[C@H]2O[C@H](O[C@H]3[C@H](O)[C@@H](O)C(O)O[C@@H]3CO)[C@H](O)[C@@H](O)[C@@H]2O)[C@H](O)[C@@H](O)[C@@H]1O (some centres unmarked) [panose] and answer again.
Completion: 16.1 grams/liter

Prompt: Now consider OC[C@H]1O[C@H](O[C@H]2[C@H](O)[C@@H](O)[C@@H](O[C@H]3[C@H](O)[C@@H](O)[C@@H](O[C@H]4[C@H](O)[C@@H](O)C(O)O[C@@H]4CO)O[C@@H]3CO)O[C@@H]2CO)[C@H](O)[C@@H](O)[C@@H]1O (some centres unmarked) [maltotetraose] and answer again.
Completion: 12.4 grams/liter

Prompt: Now consider OC[C@H]1O[C@H](OC[C@H]2O[C@H](O[C@H]3[C@H](O)[C@@H](O)[C@@H](O[C@H]4[C@H](O)[C@@H](O)[C@@H](O)O[C@@H]4CO)O[C@@H]3CO)[C@H](O)[C@@H](O)[C@@H]2O)[C@H](O)[C@@H](O)[C@@H]1O [compound 7] and answer again.
Completion: 10.1 grams/liter

---

test system: purified X. dendrorhous enzyme (F-3); test: Glycosyltransferase activity: incubating maltose (240 g/l) with the purified X. dendrorhous enzyme (F-3), HPLC analysis; assay type: biochemical, Xanthophyllomyces dendrorhous; details: after 288 hours; maltose 240 g/l, 0.7 μg α-glucosidase, pH 5.4, 40° C., 200 rpm
Classify as follows. Reported composition of the system greater than or equal to 20 g/L: TRUE. Reported composition of the system below: FALSE.

Prompt: Check the entry OC[C@H]1O[C@H](OC[C@H]2OC(O)[C@H](O)[C@@H](O)[C@@H]2O)[C@H](O)[C@@H](O)[C@@H]1O (some centres unmarked) [isomaltose] : does composition of the system equal or exceed 20 g/L?
Completion: FALSE

Prompt: Now consider OC[C@H]1O[C@H](OC[C@H]2O[C@H](O[C@H]3[C@H](O)[C@@H](O)[C@@H](O[C@H]4[C@H](O)[C@@H](O)[C@@H](O)O[C@@H]4CO)O[C@@H]3CO)[C@H](O)[C@@H](O)[C@@H]2O)[C@H](O)[C@@H](O)[C@@H]1O [compound 7] and answer again.
Completion: FALSE

Prompt: Now consider OC[C@H]1O[C@H](O[C@H]2[C@H](O)[C@@H](O)[C@@H](O[C@H]3[C@H](O)[C@@H](O)C(O)O[C@@H]3CO)O[C@@H]2CO)[C@H](O)[C@@H](O)[C@@H]1O (some centres unmarked) [maltotriose] and answer again.
Completion: TRUE

Prompt: Now consider OC[C@H]1O[C@H](O[C@H]2[C@H](O)[C@@H](O)[C@@H](O[C@H]3[C@H](O)[C@@H](O)[C@@H](O[C@H]4[C@H](O)[C@@H](O)C(O)O[C@@H]4CO)O[C@@H]3CO)O[C@@H]2CO)[C@H](O)[C@@H](O)[C@@H]1O (some centres unmarked) [maltotetraose] and answer again.
Completion: FALSE

Prompt: Now consider OC[C@H]1O[C@H](OC[C@H]2O[C@H](O[C@H]3[C@H](O)[C@@H](O)C(O)O[C@@H]3CO)[C@H](O)[C@@H](O)[C@@H]2O)[C@H](O)[C@@H](O)[C@@H]1O (some centres unmarked) [panose] and answer again.
Completion: TRUE
